target: T1, human EGFRvIII-hFc protein (human, UniProt P00533 25-645); test: ELISA, EGFRvIII-hFc coated
T1 construct: extracellular domain; also called immunogen A; hFc-tagged EGFRvIII protein; not shown: human IgG Fc fragment (hFc) of the pCpC vector
Threshold check on Maximum OD450 value: at or above 3 OD450 gives true, strictly below gives false.

Please tell me: is the binder c75G7C6-1 (antibody, human IgG1, V domains shown, Chimeric 75G7C6 with NG of heavy chain CDR2 mutated to NA; also called c754G7C6-1; mutant chimeric antibody NG/NA) VH: EVQLQQSGPELVKPGASVKIPCKASGYTFTDYNMDWVKQSHGKSLEWIGDINPNNADTIYNQKFKGKATLTVDKSSSTAYMELRSLTSEDTAVYYCARGDYDGYYPVYYAMDYWGQGTSVTVSS VL: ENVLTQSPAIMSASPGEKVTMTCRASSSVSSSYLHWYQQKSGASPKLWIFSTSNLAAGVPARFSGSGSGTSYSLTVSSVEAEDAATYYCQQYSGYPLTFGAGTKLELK at or over 3 OD450 in terms of Maximum OD450 value? true

Please tell me: is the binder c75G7C6-4 (antibody, human IgG1, V domains shown, Chimeric 75G7C6 with DG of heavy chain CDR3 mutated to SG; Human IgG1/kappa; also called mutant chimeric antibody DG/SG) VH: EVQLQQSGPELVKPGASVKIPCKASGYTFTDYNMDWVKQSHGKSLEWIGDINPNNGDTIYNQKFKGKATLTVDKSSSTAYMELRSLTSEDTAVYYCARGDYSGYYPVYYAMDYWGQGTSVTVSS VL: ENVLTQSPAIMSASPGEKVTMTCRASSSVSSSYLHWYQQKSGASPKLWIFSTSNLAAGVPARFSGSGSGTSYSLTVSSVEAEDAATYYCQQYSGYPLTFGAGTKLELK at or over 3 OD450 in terms of Maximum OD450 value? false

Please tell me: is the binder c75G7C6-2 (antibody, human IgG1, V domains shown, Chimeric 75G7C6 with NG of heavy chain CDR2 mutated to QG; also called c754G7C6-2; mutant chimeric antibody NG/QG) VH: EVQLQQSGPELVKPGASVKIPCKASGYTFTDYNMDWVKQSHGKSLEWIGDINPNQGDTIYNQKFKGKATLTVDKSSSTAYMELRSLTSEDTAVYYCARGDYDGYYPVYYAMDYWGQGTSVTVSS VL: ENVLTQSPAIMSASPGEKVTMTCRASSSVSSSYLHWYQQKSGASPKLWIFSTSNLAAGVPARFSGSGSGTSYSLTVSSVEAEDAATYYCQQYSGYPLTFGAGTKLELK at or over 3 OD450 in terms of Maximum OD450 value? true

Please tell me: is the binder c75G7C6-3 (antibody, human IgG1, V domains shown, Chimeric 75G7C6 with DG of heavy chain CDR3 mutated to EG; Human IgG1/kappa; also called mutant chimeric antibody DG/EG) VH: EVQLQQSGPELVKPGASVKIPCKASGYTFTDYNMDWVKQSHGKSLEWIGDINPNNGDTIYNQKFKGKATLTVDKSSSTAYMELRSLTSEDTAVYYCARGDYEGYYPVYYAMDYWGQGTSVTVSS VL: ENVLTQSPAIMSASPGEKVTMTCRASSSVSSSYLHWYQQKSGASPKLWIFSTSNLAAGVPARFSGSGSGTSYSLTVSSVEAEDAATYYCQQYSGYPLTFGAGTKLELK at or over 3 OD450 in terms of Maximum OD450 value? false
